System: HEK-293T
assay_comment: Multiplex assay against HEK293T
Assay type: toxicity, cell-based
experimental_context: human, 48 h, 1 µM, compound concentration 1 uM, replicate 2
Below, each entry is listed with its recorded Total Cell Count.
Please reply with the number alone, leaving off any unit.

The examples below pair each entry with its known result.
compound	obs_value
COc1ccccc1N1CCN(C[C@@H](C(=O)NC(C)(C)C)c2ccccc2)CC1.Cl.Cl	480
CN(C)C(=O)Cn1cc(-c2ccc(-c3cncc4ccccc34)cc2)cn1	430
Cc1cccc(NC(=O)CN2CCC(c3ccccn3)CC2)c1.Cl.Cl	524
Br.CS(=O)(=O)Nc1c(O)ccc2c1CCCC2C1=NCCN1 (stereo not drawn)	532
O=C1[C@H](Cc2ccc(O)cc2)N2C(=O)CCN(C(=O)NCc3ccccc3)[C@H]2CN1Cc1cccc2ccccc12	472

Memo: COC[C@@H](c1ccc(C(F)(F)F)cc1)N1CCN(C2(C)CCN(C(=O)c3c(C)ncnc3C)CC2)C[C@@H]1C.O=C(O)/C=C\C(=O)O [VICRIVIROC MALEATE] , reported Total Cell Count: 751

Memo: "CCCOc1ccc2[nH]cc(C3=CCNCC3)c2n1.Cl" , reported Total Cell Count: 657

Memo: CC(C)c1noc(N2CCC(COc3ccc(-c4ccc(S(C)(=O)=O)cc4)nc3)CC2)n1 [GSK-1292263] , reported Total Cell Count: 882

----------
Test system: HEK-293T
assay_comment: Multiplex assay against HEK293T
Format: toxicity, cell-based
experimental_context: human, 12 h, 1 µM, compound concentration 1 uM, replicate 1
measured_metric: Population Mitochondria Different-Phenotype (%)
Your answer is read as %, so omit the unit and give the number.

The examples below pair each entry with its known result.
>>> df
                                   molecule  obs_value
0  Br.CS(=O)(=O)Nc1c(O)ccc2c1CCCC2C1=NCCN1 (stereo not given)         45
1  CCCCC1=NC2(CCCC2)C(=O)N1Cc1ccc(-c2ccccc2-c2nnn[nH]2)cc1 [IRBESARTAN]         34
2  CC(C)COc1ccc(CNC(=O)N(Cc2ccc(F)cc2)C2CCN(C)CC2)cc1 [PIMAVANSERIN]         50

Memo: "Cc1cnc(-c2cc(N3CCN(C(=O)CCS(C)(=O)=O)CC3)ncc2Cl)c(C)c1" , reported Population Mitochondria Different-Phenotype (%): 50

Memo: "Cc1noc(-c2ccc(-c3ccc(CC(=O)O)cc3)cc2)c1NC(=O)O[C@H](C)c1ccccc1Cl" , reported Population Mitochondria Different-Phenotype (%): 38

Memo: Cl.N=C(N)NC(=O)Cc1c(Cl)cccc1Cl [GUANFACINE HYDROCHLORIDE] , reported Population Mitochondria Different-Phenotype (%): 46

----------
Test system: Fibroblast
assay_comment: Multiplex assay against human fibroblast
Format: toxicity, cell-based
experimental_context: 24 h, 10 µM, compound concentration 10 uM, replicate 1
measured_metric: Population Membrane Permeable-Phenotype (%)
Give me the value, and tack the unit on after it.

For the molecule CCCCCC(O)/C=C/[C@H]1C(=O)CC(O)C1C/C=C\CCCC(=O)O (some centres not stated) , the measured Population Membrane Permeable-Phenotype (%) on Fibroblast was 1%

For the molecule "COc1cccc2c1c(NS(=O)(=O)c1ccc(Cl)s1)nn2Cc1cccc(CNC(=O)C(C)(C)O)c1" , the measured Population Membrane Permeable-Phenotype (%) on Fibroblast was 1%

For the molecule "Cc1cccc(NC(=O)CN2CCC(c3ccccn3)CC2)c1.Cl.Cl" , the measured Population Membrane Permeable-Phenotype (%) on Fibroblast was 0%

For the molecule Cc1sc2c(c1C)C(c1ccc(Cl)cc1)=N[C@@H](CC(=O)NCCCCCCCCNC(=O)COc1cccc3c1C(=O)N(C1CCC(=O)NC1=O)C3=O)c1nnc(C)n1-2 (some centres not stated) , the measured Population Membrane Permeable-Phenotype (%) on Fibroblast was 3%

For the molecule CCCCC1=NC2(CCCC2)C(=O)N1Cc1ccc(-c2ccccc2-c2nnn[nH]2)cc1 [IRBESARTAN] , the measured Population Membrane Permeable-Phenotype (%) on Fibroblast was 3%

For the molecule CC[C@@H](C)Nc1nc(C)nc2c(-c3ccc(OC)nc3C)c(C)nn12 [PEXACERFONT] , the measured Population Membrane Permeable-Phenotype (%) on Fibroblast was 2%

For the molecule "CN(C)C(=O)Cn1cc(-c2ccc(-c3cncc4ccccc34)cc2)cn1" , the measured Population Membrane Permeable-Phenotype (%) on Fibroblast was 0%
